Some molecules, each annotated with its measured IC50.
Biological target: Human LBAT (Homo sapiens, UniProt Q14973)
Construct: kept under Geneticin selection
Test: LBAT (h/m) assay: 3H-taurocholic acid uptake in human LBAT-overexpressing cells
Details: 0.3 μM 3H-taurocholic acid and 7.5 μM cold taurocholic acid, 20 minutes, read-out: hLBAT IC50
Endpoint label: IC50 (nM)

{"Molecule": "CCCCC1(CC)CN(c2ccccc2)c2cc(Cl)c(O/C=C/C(=O)O)cc2S(=O)(=O)C1 (racemic) [Example 49]", "Value measured": 94}
{"Molecule": "CCCCC1(CC)CN(c2ccccc2)c2cc(I)c(O/C=C/C(=O)O)cc2S(=O)(=O)C1 (single isomer, unassigned) [Example 58]", "Value measured": 84}
{"Molecule": "CCCCC1(CCCC)CN(c2ccc(C(F)(F)F)cc2)c2cc(SC)c(O/C=C/C(=O)O)cc2S(=O)(=O)C1", "Value measured": 506}
{"Molecule": "CCCCC1(CC)CN(c2ccccc2)c2cc(Br)c(O/C=C/C(=O)O)cc2S(=O)(=O)C1 (single isomer, unassigned) [Example 5]", "Value measured": 290}

----------
Biological target: Human LBAT (Homo sapiens, UniProt Q14973)
Construct: kept under Geneticin selection
Sequence (Q14973 1-349): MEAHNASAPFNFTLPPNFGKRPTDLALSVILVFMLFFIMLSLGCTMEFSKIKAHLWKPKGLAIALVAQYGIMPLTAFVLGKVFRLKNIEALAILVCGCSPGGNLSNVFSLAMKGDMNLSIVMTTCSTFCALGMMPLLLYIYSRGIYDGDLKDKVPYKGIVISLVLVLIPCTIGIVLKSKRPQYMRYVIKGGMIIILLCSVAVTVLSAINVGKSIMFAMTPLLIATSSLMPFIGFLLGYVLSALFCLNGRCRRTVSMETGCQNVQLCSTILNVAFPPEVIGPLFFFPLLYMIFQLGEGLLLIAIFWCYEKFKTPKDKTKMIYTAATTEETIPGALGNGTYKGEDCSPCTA
Assay: LBAT (h/m) assay: 3H-taurocholic acid uptake in human LBAT-overexpressing cells
Conditions: 0.3 μM 3H-taurocholic acid and 7.5 μM cold taurocholic acid, 20 minutes, read-out: hLBAT IC50

{"Molecule": "CCCC[C@@]1(CC)CN(c2ccccc2)c2cc(NC)c(O/C=C/C(=O)O)cc2S(=O)(=O)C1 (single isomer, unassigned)", "U": "nM", "IC50": 1470}
{"Molecule": "CCCCC1(CC)CN(c2ccccc2)c2cc(Cl)c(O/C=C/C(=O)O)cc2S(=O)(=O)C1 (single isomer, unassigned) [Example 50]", "U": "nM", "IC50": 89}
{"Molecule": "CCCCC1(CCCC)CN(c2ccccc2)c2cc(N(C)C)c(O/C=C/C(=O)O)cc2S(=O)(=O)C1", "U": "nM", "IC50": 1470}
{"Molecule": "CCCCC1(CCCC)CN(c2ccccc2)c2cc(C3CC3)c(O/C=C/C(=O)O)cc2S(=O)(=O)C1", "U": "nM", "IC50": 749}

----------
Tested on: HepaRG cells
Assay: HepaRG-based assay: 3H-taurocholic acid uptake in differentiated HepaRG cells
Type: cell-based
Conditions: Homo sapiens, HepaRG, 0.3 μM 3H-taurocholic acid and 7.5 μM cold taurocholic acid, 30 minutes
IC50 under 1000 nM gets label 1, anything at or over 1000 nM gets label 0.

{"Compound": "CCCCC1(CCCC)CN(c2ccc(NC(=O)C(C)(C)C)cc2)c2cc(SC)c(O/C=C/C(=O)O)cc2S(=O)(=O)C1", "Label": "label 1"}
{"Compound": "CCCCC1(CCCC)CN(c2ccc(NC(=O)C3CCCC3)cc2)c2cc(SC)c(O/C=C(\\F)C(=O)O)cc2S(=O)(=O)C1", "Label": "label 1"}
{"Compound": "CCCCC1(CCCC)CN(c2ccc(N(C)C)cc2)c2cc(SC)c(O/C=C/C(=O)O)cc2S(=O)(=O)C1", "Label": "label 0"}
{"Compound": "CCCCC1(CCCC)CN(c2ccc(O)cc2)c2cc(SC)c(O/C=C(\\F)C(=O)O)cc2S(=O)(=O)C1", "Label": "label 0"}
{"Compound": "CCC1(CC)CN(c2ccccc2)c2cc(SC)c(O/C=C/C(=O)O)cc2S(=O)(=O)C1", "Label": "label 1"}
{"Compound": "CCCCC1(CC)CN(c2ccccc2)c2cc(Cl)c(O/C=C/C(=O)O)cc2S(=O)(=O)C1 (single isomer, unassigned) [Example 50]", "Label": "label 1"}
